This collection of values is drawn from the supplement of paper PMC10981050.

Test system: OCI-AML2;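 also: after 48 h exposure read by CellTiter-Glo luminescence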
Assay: cell viability relative to vehicle control; higher = less cytotoxic
Conditions: 10 µM; SRSF2 genotype: wt/wt
Where a name gives a salt, the structure may show the parent alone.
List of cell viability values.
Use % as the unit, but write only the number.

Previously resolved entries follow.
molecule	units.of.measure	recorded.result
CN[C@@H](C)C(=O)N[C@H](C(=O)N1CCC[C@H]1C(=O)Nc1snnc1-c1ccccc1)C1CCCCC1	%	123
Cc1ccc2c(c1)C(=O)C1(O)CCN(c3ccccc3)C1=N2 (single isomer, unassigned; (-)) [(-)-Blebbistatin]	%	90.4
Cc1nc2c(O)cccc2c(=O)[nH]1	%	108
NC(=O)c1cn(Cc2c(F)cccc2F)nn1 [Rufinamide (Banzel)]	%	103
O=C1c2ccccc2C(=O)C1c1ccccc1 [Phenindione (Rectadione)]	%	113

Asked: For the molecule shown here, "C[C@@H](NC(=O)c1ncnc(N)c1Cl)c1ncc(C(=O)Nc2cc(C(F)(F)F)c(Cl)cn2)s1" , give the reported cell viability.
Given back: 69.8

Asked: For the molecule shown here, "Oc1ccc2c(c1)OC[C@H]1c3cc4c(cc3O[C@@H]21)OCO4" , give the reported cell viability.
Given back: 84.6

Asked: For the molecule shown here, CCCCOc1cc(C(=O)NCCN(CC)CC)c2ccccc2n1 [Dibucaine (Cinchocaine) HCl] , give the reported cell viability.
Given back: 86.1

Asked: For the molecule shown here, "Cc1cc(N2CCOCC2)ccc1Nc1nc(NC2CCCCC2)c2[nH]cnc2n1" , give the reported cell viability.
Given back: 39.8

Asked: For the molecule shown here, Cc1c(C)c2c(c(C)c1O)CCC(C)(CCCC(C)CCCC(C)CCCC(C)C)O2 (stereo unspecified) , give the reported cell viability.
Given back: 100

Asked: For the molecule shown here, "NC(=O)/C(=C/n1cnc(-c2cc(C(F)(F)F)cc(C(F)(F)F)c2)n1)c1cncnc1" , give the reported cell viability.
Given back: 4.56

Asked: For the molecule shown here, CC(C[N+](C)(C)C)OC(N)=O (stereo unspecified) [Bethanechol chloride] , give the reported cell viability.
Given back: 98.2

---

Tested on: OCI-AML2;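 also: after 48 h exposure read by CellTiter-Glo luminescence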
Experiment: cell viability relative to vehicle control; higher = less cytotoxic
Details: 10 µM; SRSF2 genotype: P95H/wt
endpoint.label: cell viability (%)
Use % as the unit, but write only the number.

Asked: OCI-AML2 / cell viability / C=C1/C(=C\C=C2/CCC[C@]3(C)[C@@H]([C@H](C)CCCC(C)(C)O)CC[C@@H]23)C[C@@H](O)C[C@@H]1O [Calcitriol (Rocaltrol)] : value?
Given back: 64.9

---

List of cell viability values.
Test system: OCI-AML2;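 also: after 48 h exposure read by CellTiter-Glo luminescence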
Assay: cell viability relative to vehicle control; higher = less cytotoxic
Conditions: 10 µM; SRSF2 genotype: P95H/wt
Structures can show the parent of a compound that is named as a salt.

compound	endpoint.label	recorded.result
Cc1[nH]c(/C=C2\C(=O)Nc3ccc(F)cc32)c(C)c1C(=O)NCCN1CCCC1 [Toceranib phosphate]	cell viability	11.6%

Asked: For the compound shown here, "CCC(=O)NCC[C@@H]1CCc2ccc3c(c21)CCO3" , give the reported cell viability.
Given back: 93.7%

Asked: For the compound shown here, NS(=O)(=O)c1cc2c(cc1Cl)NC(C(Cl)Cl)NS2(=O)=O (stereo not drawn) [Trichlormethiazide (Achletin)] , give the reported cell viability.
Given back: 112%

Asked: For the compound shown here, C[C@@H](O[C@H]1OCCN(Cc2nn(P(=O)(O)O)c(=O)[nH]2)[C@H]1c1ccc(F)cc1)c1cc(C(F)(F)F)cc(C(F)(F)F)c1 [Fosaprepitant dimeglumine salt] , give the reported cell viability.
Given back: 52.4%

Asked: For the compound shown here, O=C(c1ccccc1)C(O)O [Phenylglyoxal hydrate] , give the reported cell viability.
Given back: 81.6%

Asked: For the compound shown here, O=C1c2ccc(Nc3ccc(F)cc3F)cc2CCc2ccc(OC[C@H](O)CO)cc21 [Skepinone-L] , give the reported cell viability.
Given back: 77.2%

Asked: For the compound shown here, CNC(=O)c1cc(Oc2ccc(NC(=O)Nc3cc(C(C)(C)C)nn3-c3ccc4ncccc4c3)c(F)c2)ccn1 [DCC-2036 (Rebastinib)] , give the reported cell viability.
Given back: 3.03%

Asked: For the compound shown here, CC(Oc1cc(-c2cnn(C3CCNCC3)c2)cnc1N)c1c(Cl)ccc(F)c1Cl [(S)-crizotinib] , give the reported cell viability.
Given back: 88.8%
